Catalogue of Concentration in cells, samples values
System: HepG2 cells
Test: Biotransformation experiment in HepG2 (concentration in cells and exposure medium)
Settings: HepG2 exposed to 20 mg·L^−1 BDE-47, 48 h, metabolites

| Smiles String | Concentration in cells, samples, ng/g |
| --- | --- |
| Brc1ccc(Oc2ccc(Br)cc2Br)cc1 | 18 |
| Oc1cc(Br)ccc1Oc1ccc(Br)cc1Br | 0.11 |
| Oc1cc(Oc2ccc(Br)cc2Br)c(Br)cc1Br | 0.27 |
| COc1cc(Oc2ccc(Br)cc2Br)c(Br)cc1Br | 0.12 |
| Oc1c(Br)ccc(Oc2ccc(Br)cc2Br)c1Br | 0.21 |

====

Assay: MTT cell viability assay
Type: cell-based
Conditions: human; HepG2, 48 h of exposure, MTT, polynomial fitting; read-out: LC50 (50% viability)
Experimental Endpoint: CC50 at 48 h (µg/mL)

| Smiles String | Observed Value |
| --- | --- |
| Brc1ccc(Oc2ccc(Br)cc2Br)c(Br)c1 | 46 |

====

System: HepG2 cells
Test: Biotransformation experiment in HepG2 (concentration in cells and exposure medium)
Settings: HepG2 exposed to 15 mg·L^−1 PHE, 48 h, metabolites
Experimental Endpoint: Concentration in medium, samples (ng/mL)

| Smiles String | Experimental Endpoint | Observed Value |
| --- | --- | --- |
| Oc1ccc2c(ccc3ccccc32)c1 | Concentration in medium, samples | 5.2 |
| Oc1cccc2ccc3ccccc3c12 | Concentration in medium, samples | 5 |
| Oc1ccc2ccc3ccccc3c2c1 | Concentration in medium, samples | 4.0 |
| Oc1cccc2c1ccc1ccccc12 | Concentration in medium, samples | 7.7 |

====

Tested on: HepG2 cells
Experiment: Biotransformation experiment in HepG2 (concentration in cells and exposure medium)
Settings: HepG2 exposed to 20 mg·L^−1 BDE-47, 48 h, metabolites
Recorded Concentration in medium, samples by entry
Experimental Endpoint: Concentration in medium, samples (µg/L)

| Compound | Experimental Endpoint | Readout Unit | Observed Value |
| --- | --- | --- | --- |
| Oc1c(Br)ccc(Oc2ccc(Br)cc2Br)c1Br [3-OH-BDE-47] | Concentration in medium, samples | µg/L | 4.3 |
| Oc1cc(Br)ccc1Oc1ccc(Br)cc1Br [2’-OH-BDE-28] | Concentration in medium, samples | µg/L | 3.2 |
| Brc1ccc(Oc2ccc(Br)cc2Br)cc1 [BDE-28] | Concentration in medium, samples | µg/L | 577 |
| Oc1cc(Oc2ccc(Br)cc2Br)c(Br)cc1Br [5-OH-BDE-47] | Concentration in medium, samples | µg/L | 6.2 |
| COc1cc(Oc2ccc(Br)cc2Br)c(Br)cc1Br [5-MeO-BDE-47] | Concentration in medium, samples | µg/L | 1.2 |
